Target: UniProtKB A0A0K0GND9
Sequence (A0A0K0GND9 318-494 limits assumed): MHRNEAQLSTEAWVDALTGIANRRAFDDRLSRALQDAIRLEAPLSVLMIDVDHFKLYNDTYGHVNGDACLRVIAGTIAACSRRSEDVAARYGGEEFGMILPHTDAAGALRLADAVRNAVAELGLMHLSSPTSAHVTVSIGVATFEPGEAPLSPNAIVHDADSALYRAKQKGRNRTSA
pKd: −log10 of the molar value.

# TEST_SMILES, pKd
data = [
    ("Nc1nc2c(ncn2[C@@H]2O[C@@H]3CO[P@](=O)(O)O[C@H]4[C@@H](O)[C@H](n5cnc6c(=O)[nH]c(N)nc65)O[C@@H]4CO[P@](=O)(O)O[C@H]3[C@H]2O)c(=O)[nH]1", 5.05),
]
